Assign GI50 to each entry below.
Tested on: OVCAR-5
Experiment: NCI tumour cell line growth inhibition, 48 h
Active and inactive are the calls of the source. Cut-off read from the data, not from the text of the source: active = GI50 up to about 1.1 µM and inactive = higher.

Example cases with answers are listed next.
INSERT INTO assay_data (molecule, result) VALUES
  ('COc1cc(S(=O)(=O)Nc2nc(-c3ccc(/N=C/c4ccccc4O)cc3)cs2)ccc1Cl', '> 100 µM (inactive)'),
  ('Cc1cc(OC(=O)Nc2ccc(Cl)cc2)ccc1C(=S)Nc1ccccc1', '57 µM (inactive)'),
  ('CCOc1ccc(NC(=O)/C(=N\N)C(C(=O)OC)c2nc3ccc(Cl)cc3nc2O)cc1 (stereo unspecified)', '> 100 µM (inactive)');

Hi team, please reply with GI50 for each item in this list.
1. CC(Cn1c(=O)oc2ccccc21)N(C)C (stereo unspecified)
2. CC1CC(=O)C(C(O)CC2CC(=O)N(c3ccccc3)C(=O)C2)C(C)C1 (stereo unspecified)

> 100 µM (inactive)
> 100 µM (inactive)

Hi team, please reply with GI50 for each item in this list.
1. COC(=O)C12CC3CC(CC(C(=O)O)(C3)C1)C2
2. CN(C)CCCNc1ccc([N+](=O)[O-])c2nc3ccccc3c(N)c12
3. CN(C)c1ccc(/C=c2\sc3nnc(-c4ccco4)n3c2=O)cc1
4. CC[C@]12CCCN3CCc4c(n(c5ccccc45)C(=O)C1)[C@@H]32
5. Cc1ccc(-c2cc(-c3ccco3)c(C#N)c(=S)[nH]2)cc1

> 100 µM (inactive)
2.49 µM (inactive)
> 100 µM (inactive)
34.6 µM (inactive)
> 100 µM (inactive)

Hi team, please reply with GI50 for each item in this list.
1. COc1ccc2c(c1)C(O)(C(F)(F)F)c1cc(C(=O)C(F)(F)F)c3ccccc3c1N2 (stereo unspecified)
2. O=c1[nH]nc(-c2ccc([N+](=O)[O-])cc2)[nH]1
3. Cc1ccc(NC(=O)CC(=O)n2nc(-c3ccccc3)c(/N=N/c3ccccc3Cl)c2-c2ccccc2)cc1
4. CCOC(OC1=C(C#N)CCCC1)C(CC)[Se]c1ccccc1 (stereo unspecified)
5. CC(OC(C)(C)C)[C@H](NC(=O)OCC(Cl)(Cl)Cl)C(=O)O (stereo partly specified)

["14.4 µM (inactive)", "> 100 µM (inactive)", "19.4 µM (inactive)", "32.4 µM (inactive)", "> 100 µM (inactive)"]
